Source: patent US20220402883A1

Tested on: RNA3WJ_0.0.0_5IB_3FAM (3WJ_0.0.0_5IB_3FAM RNA construct)
Test: Thermal shift binding assay
Details: RNA sequence 3WJ_0.0.0_5IB_FAM; with cmpd minus without cmpd
Structures can show the parent of a compound that is named as a salt.
We begin with a simple list: items and their reported Shift melt. Temp..
PARAMETER_MEASURED: Shift melt. Temp.

COMPOUND: O=C(O)CCC12C3=C(CNCC3)C(c3ccccc31)c1ccccc12
RESULT: +0.3 °C
--
COMPOUND: CC1(C)CC(Oc2ccc(-c3ccc(-c4cn[nH]c4)cc3O)nn2)CC(C)(C)N1
RESULT: −0.2 °C
--
COMPOUND: CN(CCOCCN(C)C(=O)[C@@H]1C[C@H](N=[N+]=[N-])CN1C(=O)c1ccc2c(=O)oc(=O)n(C)c2c1)C(=O)CCC12c3cc(NC(=O)CCCCCCCN)ccc3C(c3ccc(NC(=O)CCCCCCCN)cc31)c1ccc(NC(=O)CCCCCCCN)cc12
RESULT: +0.9 °C
--
COMPOUND: N[C@H](Cc1c[nH]cn1)C(=O)Nc1ccc2c(c1)C1c3cc(NC(=O)[C@H](N)Cc4c[nH]cn4)ccc3C2c2ccc(NC(=O)[C@H](N)Cc3cnc[nH]3)cc21 [ARK000018, hydrochloride]
RESULT: +0.2 °C
--
COMPOUND: CN(CCOCCN(C)C(=O)[C@@H]1C[C@H](N=[N+]=[N-])CN1C(=O)CCc1ccc(S(=O)(=O)F)cc1)C(=O)CCC12c3cc(NC(=O)CCCCCCCN)ccc3C(c3ccc(NC(=O)CCCCCCCN)cc31)c1ccc(NC(=O)CCCCCCCN)cc12
RESULT: +23.7 °C
--
COMPOUND: C#CCCCC(=O)NC[C@H]1O[C@H](O[C@H]2[C@H](O)[C@@H](O[C@H]3O[C@H](CO)[C@@H](O)[C@H](N)[C@H]3O)[C@H](N)C[C@@H]2N)[C@H](O)[C@@H](O)[C@@H]1O
RESULT: +0.6 °C

###

We begin with a simple list: items and their reported Melt. Temp. with cmpd.
Tested on: RNA3WJ_0.0.0_5IB_3FAM (3WJ_0.0.0_5IB_3FAM RNA construct)
Assay: Thermal shift binding assay
Settings: RNA sequence 3WJ_0.0.0_5IB_FAM; melting temperature in presence of compound

SMILES_CODE: CN(CCOCCN(C)C(=O)[C@@H]1C[C@H](N=[N+]=[N-])CN1C(=O)CCc1ccc(S(=O)(=O)F)cc1)C(=O)CCC12c3cc(NC(=O)CCCCCCCN)ccc3C(c3ccc(NC(=O)CCCCCCCN)cc31)c1ccc(NC(=O)CCCCCCCN)cc12
MEASURED_ON: RNA3WJ_0.0.0_5IB_3FAM (3WJ_0.0.0_5IB_3FAM RNA construct)
Melt. Temp. with cmpd / °C: 83.4
//
SMILES_CODE: CN(CCCN)CCCNC(=O)c1ccccc1
MEASURED_ON: RNA3WJ_0.0.0_5IB_3FAM (3WJ_0.0.0_5IB_3FAM RNA construct)
Melt. Temp. with cmpd / °C: 60.3
//
SMILES_CODE: CN(CCOCCOCCNC(=O)CCC12c3cc(NC(=O)CCCCCCCN)ccc3C(c3ccc(NC(=O)CCCCCCCN)cc31)c1ccc(NC(=O)CCCCCCCN)cc12)C(=O)[C@@H]1C[C@H](N=[N+]=[N-])CN1C(=O)COc1ccc2c(=O)oc(=O)n(C)c2c1
MEASURED_ON: RNA3WJ_0.0.0_5IB_3FAM (3WJ_0.0.0_5IB_3FAM RNA construct)
Melt. Temp. with cmpd / °C: 50.4
